Data origin, for the record: the supplement of paper PMC6004109

tested on: Candida glabrata ZIM 2385 (RPMI); assay: Bliss independence sum of statistically significant ΔE (measured minus predicted growth inhibition) over checkerboard surface (fraction (sum of ΔE; 1 = 100%)); higher = more synergy; details: temperature: 37 °C
Parameter Bliss independence sum: see the listing below.
Give the figure only, with no unit attached.

Solved cases below.
molecule	Bliss independence sum
C=CC[C@@H]1/C=C(\C)C[C@H](C)C[C@H](OC)[C@H]2O[C@@](O)(C(=O)C(=O)N3CCCC[C@H]3C(=O)O[C@H](/C(C)=C/[C@@H]3CC[C@@H](O)[C@H](OC)C3)[C@H](C)[C@@H](O)CC1=O)[C@H](C)C[C@@H]2OC [tacrolimus] + OC(Cn1cncn1)(Cn1cncn1)c1ccc(F)cc1F [fluconazole]	5.34
CC1(C)S[C@@H]2[C@H](NC(=O)[C@H](N)c3ccc(O)cc3)C(=O)N2[C@H]1C(=O)O [amoxicillin] + C[C@@H]1[C@H](O)[C@@H](C)/C=C/C=C/C=C/C=C/C=C/C=C/C=C/[C@H](O[C@@H]2O[C@H](C)[C@@H](O)[C@H](N)[C@@H]2O)C[C@@H]2O[C@](O)(C[C@@H](O)C[C@@H](O)[C@H](O)CC[C@@H](O)C[C@@H](O)CC(=O)O[C@H]1C)C[C@H](O)[C@H]2C(=O)O [amphotericin B]	2.19
CN(Cc1cnc2nc(N)nc(N)c2n1)c1ccc(C(=O)N[C@@H](CCC(=O)O)C(=O)O)cc1 [methotrexate] + C[C@@H]1[C@H](O)[C@@H](C)/C=C/C=C/C=C/C=C/C=C/C=C/C=C/[C@H](O[C@@H]2O[C@H](C)[C@@H](O)[C@H](N)[C@@H]2O)C[C@@H]2O[C@](O)(C[C@@H](O)C[C@@H](O)[C@H](O)CC[C@@H](O)C[C@@H](O)CC(=O)O[C@H]1C)C[C@H](O)[C@H]2C(=O)O [amphotericin B]	-1.71
COc1c(C)c2c(c(O)c1C/C=C(\C)CCC(=O)O)C(=O)OC2 [mycophenolic acid] + C[C@@H]1[C@H](O)[C@@H](C)/C=C/C=C/C=C/C=C/C=C/C=C/C=C/[C@H](O[C@@H]2O[C@H](C)[C@@H](O)[C@H](N)[C@@H]2O)C[C@@H]2O[C@](O)(C[C@@H](O)C[C@@H](O)[C@H](O)CC[C@@H](O)C[C@@H](O)CC(=O)O[C@H]1C)C[C@H](O)[C@H]2C(=O)O [amphotericin B]	2.79
CN(Cc1cnc2nc(N)nc(N)c2n1)c1ccc(C(=O)N[C@@H](CCC(=O)O)C(=O)O)cc1 [methotrexate] + OC(Cn1cncn1)(Cn1cncn1)c1ccc(F)cc1F [fluconazole]	-0.819

Read the next record carefully.
Lab note: CN(Cc1cnc2nc(N)nc(N)c2n1)c1ccc(C(=O)N[C@@H](CCC(=O)O)C(=O)O)cc1 [methotrexate] + CCC(C)n1ncn(-c2ccc(N3CCN(c4ccc(OCC5COC(Cn6cncn6)(c6ccc(Cl)cc6Cl)O5)cc4)CC3)cc2)c1=O [itraconazole] gave Bliss independence sum of -0.777

---

tested on: Candida glabrata ZIM 2344 (RPMI); assay: FICI maximum (fractional inhibitory concentration index, Loewe) (dimensionless); higher = less synergy / more antagonism; conditions: temperature: 37 °C
measurement label: FICI maximum
Reply with just the number.

compound	subject of test	FICI maximum
CN(Cc1cnc2nc(N)nc(N)c2n1)c1ccc(C(=O)N[C@@H](CCC(=O)O)C(=O)O)cc1 [methotrexate] + CCC(C)n1ncn(-c2ccc(N3CCN(c4ccc(OCC5COC(Cn6cncn6)(c6ccc(Cl)cc6Cl)O5)cc4)CC3)cc2)c1=O [itraconazole]	Candida glabrata ZIM 2344 (RPMI)	1.16

Looking up COc1c(C)c2c(c(O)c1C/C=C(\C)CCC(=O)O)C(=O)OC2 [mycophenolic acid] + OC(Cn1cncn1)(Cn1cncn1)c1ccc(F)cc1F [fluconazole] , I found its FICI maximum recorded as 1.25

Note to self: FICI maximum recorded for CC1(C)S[C@@H]2[C@H](NC(=O)[C@H](N)c3ccc(O)cc3)C(=O)N2[C@H]1C(=O)O [amoxicillin] + C[C@@H]1[C@H](O)[C@@H](C)/C=C/C=C/C=C/C=C/C=C/C=C/C=C/[C@H](O[C@@H]2O[C@H](C)[C@@H](O)[C@H](N)[C@@H]2O)C[C@@H]2O[C@](O)(C[C@@H](O)C[C@@H](O)[C@H](O)CC[C@@H](O)C[C@@H](O)CC(=O)O[C@H]1C)C[C@H](O)[C@H]2C(=O)O [amphotericin B] was 1.25

Just so you know, measured FICI maximum for C=CC[C@@H]1/C=C(\C)C[C@H](C)C[C@H](OC)[C@H]2O[C@@](O)(C(=O)C(=O)N3CCCC[C@H]3C(=O)O[C@H](/C(C)=C/[C@@H]3CC[C@@H](O)[C@H](OC)C3)[C@H](C)[C@@H](O)CC1=O)[C@H](C)C[C@@H]2OC [tacrolimus] + CCC(C)n1ncn(-c2ccc(N3CCN(c4ccc(OCC5COC(Cn6cncn6)(c6ccc(Cl)cc6Cl)O5)cc4)CC3)cc2)c1=O [itraconazole] came out at 0.5

Notebook: CC1(C)S[C@@H]2[C@H](NC(=O)[C@H](N)c3ccc(O)cc3)C(=O)N2[C@H]1C(=O)O [amoxicillin] + OC(Cn1cncn1)(Cn1cncn1)c1ccc(F)cc1F [fluconazole] , FICI maximum read as 0.75

Field FICI maximum (entry COc1c(C)c2c(c(O)c1C/C=C(\C)CCC(=O)O)C(=O)OC2 [mycophenolic acid] + CCC(C)n1ncn(-c2ccc(N3CCN(c4ccc(OCC5COC(Cn6cncn6)(c6ccc(Cl)cc6Cl)O5)cc4)CC3)cc2)c1=O [itraconazole] ) reads 1.62

Query CN(Cc1cnc2nc(N)nc(N)c2n1)c1ccc(C(=O)N[C@@H](CCC(=O)O)C(=O)O)cc1 [methotrexate] + C[C@@H]1[C@H](O)[C@@H](C)/C=C/C=C/C=C/C=C/C=C/C=C/C=C/[C@H](O[C@@H]2O[C@H](C)[C@@H](O)[C@H](N)[C@@H]2O)C[C@@H]2O[C@](O)(C[C@@H](O)C[C@@H](O)[C@H](O)CC[C@@H](O)C[C@@H](O)CC(=O)O[C@H]1C)C[C@H](O)[C@H]2C(=O)O [amphotericin B] yields FICI maximum of 1.08

GET /value?item= CC1(C)S[C@@H]2[C@H](NC(=O)[C@H](N)c3ccc(O)cc3)C(=O)N2[C@H]1C(=O)O [amoxicillin] + CCC(C)n1ncn(-c2ccc(N3CCN(c4ccc(OCC5COC(Cn6cncn6)(c6ccc(Cl)cc6Cl)O5)cc4)CC3)cc2)c1=O [itraconazole] &field=FICI maximum returns 0.375

Note to self: FICI maximum recorded for C=CC[C@@H]1/C=C(\C)C[C@H](C)C[C@H](OC)[C@H]2O[C@@](O)(C(=O)C(=O)N3CCCC[C@H]3C(=O)O[C@H](/C(C)=C/[C@@H]3CC[C@@H](O)[C@H](OC)C3)[C@H](C)[C@@H](O)CC1=O)[C@H](C)C[C@@H]2OC [tacrolimus] + OC(Cn1cncn1)(Cn1cncn1)c1ccc(F)cc1F [fluconazole] was 0.5

Data point: COc1c(C)c2c(c(O)c1C/C=C(\C)CCC(=O)O)C(=O)OC2 [mycophenolic acid] + C[C@@H]1[C@H](O)[C@@H](C)/C=C/C=C/C=C/C=C/C=C/C=C/C=C/[C@H](O[C@@H]2O[C@H](C)[C@@H](O)[C@H](N)[C@@H]2O)C[C@@H]2O[C@](O)(C[C@@H](O)C[C@@H](O)[C@H](O)CC[C@@H](O)C[C@@H](O)CC(=O)O[C@H]1C)C[C@H](O)[C@H]2C(=O)O [amphotericin B] ; FICI maximum = 1.06

Lab book: FICI maximum of CN(Cc1cnc2nc(N)nc(N)c2n1)c1ccc(C(=O)N[C@@H](CCC(=O)O)C(=O)O)cc1 [methotrexate] + OC(Cn1cncn1)(Cn1cncn1)c1ccc(F)cc1F [fluconazole] noted as 0.656
